- PROTOCOL: Plasma protein binding in dog relative to control
- Format: ADME, cell-free, Canis lupus familiaris
- CONDITION_CONTEXT: read-out: PPB (converted)
OUTCOME_MEASURE: fraction unbound
Reply: number alone, nothing else.

O=C(Nc1c2c(cc3c1CCC3)CCC2)NS(=O)(=O)c1cnn2c1OCCC2 [JT-001] : 0.045

Turning to the following compound.
Task: Returns the measured fraction unbound for the input compound. Input: "CN[C@@H]1COc2c(S(=O)(=O)NC(=O)Nc3c4c(cc5c3CCC5)CCC4)cnn2C1"
Result: 0.114

----------
- PROTOCOL: Plasma protein binding in mouse relative to control
- Format: ADME, cell-free
- CONDITION_CONTEXT: read-out: PPB (converted)
Collected fraction unbound values appear next to each entry.
In your answer, state the number alone without any accompanying words.

Task: Endpoint output: fraction unbound of "O=C(Nc1c2c(cc3c1CCC3)CCC2)NS(=O)(=O)c1cnn2c1OCCC2" . Value?
Result: 0.009

Task: Also need "CN[C@@H]1COc2c(S(=O)(=O)NC(=O)Nc3c4c(cc5c3CCC5)CCC4)cnn2C1" , thanks.
Result: 0.024

----------
- PROTOCOL: Apparent permeability across apical to basolateral side in dog MDCK cells
- Assay type: ADME, cell-based, Canis lupus familiaris
OUTCOME_MEASURE: Papp A→B (×10⁻⁶ cm/s)
Numeric only. Scale: ×10⁻⁶ cm/s

CN[C@@H]1COc2c(S(=O)(=O)NC(=O)Nc3c4c(cc5c3CCC5)CCC4)cnn2C1 : 0.077

Task: Find the recorded Papp A→B belonging to "O=C(Nc1c2c(cc3c1CCC3)CCC2)NS(=O)(=O)c1cnn2c1OCCC2" and report it.
Result: 1.8

----------
- PROTOCOL: Half life in Beagle dog at 1 mg/kg, iv measured upto 24 hrs by LC-MS/MS analysis
- Assay type: ADME, organism-based, Canis lupus familiaris
- CONDITION_CONTEXT: in vivo
OUTCOME_MEASURE: half-life (h)
API: value field is a number in h; no unit string.

CN[C@@H]1COc2c(S(=O)(=O)NC(=O)Nc3c4c(cc5c3CCC5)CCC4)cnn2C1 : 0.99

Task: Dear colleague, I am looking for the recorded half-life of the following compound: O=C(Nc1c2c(cc3c1CCC3)CCC2)NS(=O)(=O)c1cnn2c1OCCC2 [JT-001]
Result: 2.9

----------
Known half-life of a selection of compounds
- PROTOCOL: Half life in Sprague-Dawley rat at 1 mg/kg, iv measured upto 24 hrs by LC-MS/MS analysis
- Type: ADME, organism-based
- CONDITION_CONTEXT: in vivo
Kindly answer with a numeric value in h, unit omitted.

Task: Which half-life reading was recorded for the compound O=C(Nc1c2c(cc3c1CCC3)CCC2)NS(=O)(=O)c1cnn2c1OCCC2 [JT-001] ?
Result: 1.1

Task: Can you handle "CN[C@@H]1COc2c(S(=O)(=O)NC(=O)Nc3c4c(cc5c3CCC5)CCC4)cnn2C1" next?
Result: 4.4

----------
Reported bioavailability is given for each of the following molecules.
- PROTOCOL: Oral bioavailability in Beagle dog at 1 mg/kg measured upto 24 hrs by LC-MS/MS analysis
- Format: ADME, organism-based, Canis lupus familiaris
- CONDITION_CONTEXT: in vivo
Express the result in % but write the number alone.

CN[C@@H]1COc2c(S(=O)(=O)NC(=O)Nc3c4c(cc5c3CCC5)CCC4)cnn2C1 : 78

We next turn to a different molecule, shown below.
Task: Entry O=C(Nc1c2c(cc3c1CCC3)CCC2)NS(=O)(=O)c1cnn2c1OCCC2 [JT-001] has what bioavailability?
Result: 28
